Data origin: ChEMBL document CHEMBL1125733

Test system: Staphylococcus aureus
experimental.details: In vitro antibacterial activity against Staphylococcus aureus A 24227
Type: functional

{"smiles.representation": "C[C@H]1CN(c2cc3c(cc2F)c(=O)c(C(=O)O)cn3C(C)(C)CF)C[C@@H]1N", "MIC (mg/L)": 0.06}
{"smiles.representation": "CC(CF)(CF)n1cc(C(=O)O)c(=O)c2cc(F)c(N3CC[C@H](N)C3)cc21.CS(=O)(=O)O", "MIC (mg/L)": 0.13}
{"smiles.representation": "CC(C)(CF)n1cc(C(=O)O)c(=O)c2cc(F)c(N3CC[C@H](N)C3)cc21.CS(=O)(=O)O", "MIC (mg/L)": 0.016}
{"smiles.representation": "CC(C)(CF)n1cc(C(=O)O)c(=O)c2cc(F)c(N3CC[C@H](N)C3)nc21.Cl", "MIC (mg/L)": 0.13}
{"smiles.representation": "CC(C)(CF)n1cc(C(=O)O)c(=O)c2cc(F)c(N3CC4C[C@@H]3CN4)nc21.Cl", "MIC (mg/L)": 2}
{"smiles.representation": "CC(C)(CF)n1cc(C(=O)O)c(=O)c2cc(F)c(N3CCNCC3)nc21.Cl", "MIC (mg/L)": 0.5}
{"smiles.representation": "CS(=O)(=O)O.C[C@H]1C[C@H](N)CN1c1cc2c(cc1F)c(=O)c(C(=O)O)cn2C(C)(C)CF", "MIC (mg/L)": 0.03}
{"smiles.representation": "CC(C)(CF)n1cc(C(=O)O)c(=O)c2cc(F)c(N3CC(N)C3)cc21.Cl", "MIC (mg/L)": 0.016}
{"smiles.representation": "CC(C)(C)n1cc(C(=O)O)c(=O)c2cc(F)c(N3CC[C@H](N)C3)nc21", "MIC (mg/L)": 0.002}
{"smiles.representation": "CC(C)(CF)n1cc(C(=O)O)c(=O)c2cc(F)c(N3C[C@H]4CC3CN4)cc21.Cl", "MIC (mg/L)": 0.25}
